# TESTED SYSTEM: Excitatory amino acid transporter 3 (Homo sapiens) (UniProt P43005)
# Sequence (whole entry): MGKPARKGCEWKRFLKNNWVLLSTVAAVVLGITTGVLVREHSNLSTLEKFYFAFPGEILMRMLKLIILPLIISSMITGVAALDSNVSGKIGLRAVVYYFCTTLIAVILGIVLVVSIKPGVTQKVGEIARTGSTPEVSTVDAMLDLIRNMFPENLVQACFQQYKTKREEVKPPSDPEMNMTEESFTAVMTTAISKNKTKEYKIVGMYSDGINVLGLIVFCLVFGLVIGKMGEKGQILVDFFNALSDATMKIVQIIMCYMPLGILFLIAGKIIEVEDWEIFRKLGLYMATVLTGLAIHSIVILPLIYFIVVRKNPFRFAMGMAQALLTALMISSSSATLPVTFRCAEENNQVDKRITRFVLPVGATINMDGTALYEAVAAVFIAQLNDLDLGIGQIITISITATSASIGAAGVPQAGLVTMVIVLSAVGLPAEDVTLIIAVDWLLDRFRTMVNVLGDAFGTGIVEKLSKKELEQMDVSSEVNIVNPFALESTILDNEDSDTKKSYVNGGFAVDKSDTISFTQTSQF
# TEST: Residual [3H]D-aspartate uptake at human EAAT3 expressed in mouse C17.2 cells at 100 uM relative to control
// map residual activity to label using low bracket: < 7%; middle bracket: ≥ 7% and < 40%; high bracket: ≥ 40%

Past entries and their recorded results:
MOLECULE	ASSIGNED CLASS
N[C@H](C(=O)O)C(Cc1ccc2ccccc2c1)C(=O)O (stereo partly specified)	high bracket
N[C@H](C(=O)O)C(Cc1ccc([N+](=O)[O-])cc1)C(=O)O (stereo partly specified)	high bracket
N[C@H](C(=O)O)C(Cc1ccccc1)C(=O)O (stereo partly specified)	low bracket

Ask | Which category does the recorded residual activity put N[C@H](C(=O)O)[C@H](Cc1ccccc1)C(=O)O in?
Reply | low bracket

====

# TESTED SYSTEM: Excitatory amino acid transporter 3 (Homo sapiens)
# TEST: Residual [3H]D-aspartate uptake at human EAAT3 expressed in mouse C17.2 cells at 100 uM relative to control
Respond with yes for residual activity values of 30% and above, no for values below.

A selection of reference data follows.
COMPOUND	ASSIGNED CLASS
Cc1cccc(CC(C(=O)O)[C@H](N)C(=O)O)c1 (mixture of isomers)	yes
N[C@H](C(=O)O)C(Cc1cccc([N+](=O)[O-])c1)C(=O)O (mixture of isomers)	no
N[C@H](C(=O)O)C(Cc1cccc(Br)c1)C(=O)O (mixture of isomers)	no
N[C@H](C(=O)O)C(Cc1c(Cl)cccc1Cl)C(=O)O (some centres not stated)	yes
N[C@H](C(=O)O)C(Cc1cccc(F)c1)C(=O)O (some centres not stated)	no
Cc1cc(C)cc(CC(C(=O)O)[C@H](N)C(=O)O)c1 (mixture of isomers)	yes

Ask | Please check the record N[C@H](C(=O)O)C(Cc1ccc(F)cc1)C(=O)O (mixture of isomers) and state if its residual activity is at or above 30%.
Reply | no
